B1: PRIM1 (parent)
chain: CCSSADICPKCWTLMTMAIRIIDR

variants of: B1; experiment: protein stability index of a GFP-peptide fusion (GPS, HEK-293T) (PSI 1-6); higher = more stable; conditions: c terminus: a fixed tail appended;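 note: lentivirally expressed fusions sorted by FACS into six bins by GFP to DsRed ratio, PSI derived from sequencing read proportions per bin multiplied by bin number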
experimental-readout: protein stability index

# protein stability index of `I21M` = 1.89

Quick note, protein stability index for `M17C` landed at 1.15

In plain terms, `M17L` has a documented protein stability index of 1.74

Data point: `I7R` ; protein stability index = 1.85

Reported protein stability index of `M15A` : 2.96

Reported protein stability index of `S4R` : 2.42

Data point: `D6V` ; protein stability index = 1.47

`I19A` has a reported protein stability index of 1.93

Sample `R20C` ; protein stability index observed: 1.96

Sample `A18C` ; protein stability index observed: 2.45

Kindly note the recorded protein stability index for `K10H` , which is 2

// sample `T16H` , its protein stability index was 2.04

The reported protein stability index of the variant `P9M` was 1.86

Notebook: `A5C` , protein stability index read as 2.01

# protein stability index of `R24V` = 2.46

So for `C11W` , the logged protein stability index turned out to be 2.84

Entry under test: `L14M` . Its protein stability index was 1.55

Just so you know, measured protein stability index for `M17V` came out at 1.6

What the record says about `I19N` : protein stability index is 2.89

get_value(item= `R24C` , readout=protein stability index) returns 2.19

The reported protein stability index of the variant `T16G` was 2.56

So, `P9V` ? Its protein stability index was 2.27
